Target Under Test: Glucose transporter (Leishmania mexicana)
Test Summary: ST_JUDE_LEISH: Cytotoxicity at 2uM final concentration against transgenic Leishmania Mexicana promastigotes LmGT2 that are glucose transport deficient and complemented with the L. Mexicana glucose transporter 2. Activity is measured by DNA content using SYBR green in vitro
Assay type: functional

Compound	Target Under Test	inhibition, %
Cc1cccc(-c2ccc3c(c2)CC(NCc2cccc(-n4ccnc4)c2)C3)c1 (stereo not given)	Glucose transporter (Leishmania mexicana)	26.6
c1ccc2c(c1)cc(CNCCCN1CCN(CCCNCc3cc4ccccc4c4ccccc34)CC1)c1ccccc12	Glucose transporter (Leishmania mexicana)	-0.41
COc1ccccc1C(=O)Nc1ccc(Nc2nc(C)cc(N(C)C)n2)cc1	Glucose transporter (Leishmania mexicana)	5.83
COc1cc2nc(N3CCC(CNC(=O)c4ccc(-c5ccc(C(=O)N(C)C)cc5O)cc4)CC3)nc(N)c2cc1OC	Glucose transporter (Leishmania mexicana)	-1.24
COc1ccc(Oc2ccc(Nc3ccnc4ccc(C(F)(F)F)cc34)cc2)cc1OC	Glucose transporter (Leishmania mexicana)	12.3
O=C(Nc1cccc(-c2ccc(-c3nc4cc(F)ccc4[nH]3)cc2)c1)c1ccncc1	Glucose transporter (Leishmania mexicana)	2.96
Cc1ccc(CNC(=O)[C@H](CC(C)C)Nc2cc(C)nc(Nc3ccccc3)n2)cc1	Glucose transporter (Leishmania mexicana)	-0.24
O=C(NC1CC1)c1ccc(N2CCN(Cc3ccc(Cl)cc3)CC2)nc1	Glucose transporter (Leishmania mexicana)	-0.4
COc1cc(NCCCNC(=O)c2cc3c(Cl)cc(Cl)cc3[nH]2)nc2ccccc12	Glucose transporter (Leishmania mexicana)	0.77
CNC(=O)CSc1nnc(-c2ccc(C)cc2)c(-c2ccc(C)cc2)n1	Glucose transporter (Leishmania mexicana)	1.88

----------
Entries and their measured inhibition follow.
Target Under Test: Glucose transporter (Leishmania mexicana)
Test Summary: ST_JUDE_LEISH: Cytotoxicity at 2uM final concentration against transgenic Leishmania Mexicana promastigotes LmGT2 that are glucose transport deficient and complemented with the L. Mexicana glucose transporter 2. Activity is measured by DNA content using SYBR green in vitro
Format: functional
Quantity: inhibition (%)

Compound	Quantity	Unit Tag	Reported Result
COc1ccc(CNC2CCN(C)CC2)cc1-c1ccc(S(=O)(=O)NC2CCC2)s1	inhibition	%	0.46
COc1cc(F)c2ncc(Cl)c([C@H](O)CN3CCC(NCc4ccc5c(n4)NC(=O)CO5)CC3)c2c1	inhibition	%	0.03
CC(=O)N1Cc2ccccc2C1=O	inhibition	%	2.11
CCCC(C)Nc1nc(C)cc(N[C@@H](Cc2ccccc2)C(=O)NCc2ccc(C)cc2)n1 (stereo partly drawn)	inhibition	%	4.86
Cc1cc(-c2ccc(CNCc3ccsc3)cc2)ccc1S(=O)(=O)NCCN1CCCC1	inhibition	%	-0.36
CC(C)c1ccc(C=CC(=O)N2CCC(CCN3CCC(c4c[nH]c5ccccc45)CC3)CC2)cc1	inhibition	%	-0.06
O=C(NC1CCN(CCC[C@]2(c3ccc(Cl)c(Cl)c3)CCCN(C(=O)c3ccccc3)C2)CC1)c1ccc(Cl)cc1	inhibition	%	-2.33
Cc1ccc(NC(=O)c2ccc(NCCCN(C)Cc3ccccc3)c([N+](=O)[O-])c2)cc1F	inhibition	%	2.68

----------
Target Under Test: Solute carrier family 2, facilitated glucose transporter member 1 (Homo sapiens) (UniProt P11166)
Sequence (P11166 whole entry): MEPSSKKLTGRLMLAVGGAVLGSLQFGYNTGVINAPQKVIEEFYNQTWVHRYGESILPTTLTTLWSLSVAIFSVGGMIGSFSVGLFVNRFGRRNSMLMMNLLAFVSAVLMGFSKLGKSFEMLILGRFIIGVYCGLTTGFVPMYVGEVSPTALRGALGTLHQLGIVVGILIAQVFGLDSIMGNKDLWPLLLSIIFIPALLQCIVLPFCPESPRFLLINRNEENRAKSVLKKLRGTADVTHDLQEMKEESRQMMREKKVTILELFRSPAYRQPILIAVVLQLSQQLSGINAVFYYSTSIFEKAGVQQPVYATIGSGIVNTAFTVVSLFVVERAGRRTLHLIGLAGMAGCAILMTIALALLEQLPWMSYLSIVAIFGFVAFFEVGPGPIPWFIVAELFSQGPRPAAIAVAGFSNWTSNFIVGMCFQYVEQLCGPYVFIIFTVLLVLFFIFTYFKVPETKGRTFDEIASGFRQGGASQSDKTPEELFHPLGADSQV
Test Summary: ST_JUDE_LEISH: Cytotoxicity at 2uM final concentration against transgenic Leishmania Mexicana promastigotes LmGLUT1 that are glucose transport deficient and complemented with the human glucose transporter GLUT1. Activity is measured by DNA content using SYBR green in vitro
Type: functional
Quantity: inhibition (%)

Compound	Unit Tag	Reported Result
O=C(CCN1CCCCC1)Nc1ccc(Nc2nccc(NCC(O)c3ccccc3)n2)cc1 (centres undefined)	%	-1.33
Cc1ccc2nc3c(cc(C(=O)NCc4ccccc4)c(=N)n3CCCn3ccnc3)c(=O)n2c1	%	10.5
Cc1cccc(NC(=O)c2cnc(N3CCN(c4ccncc4)CC3)c(Cl)c2)c1	%	23.2
OC1(c2ccccc2)CCN(Cc2cccc(-c3c[nH]c4nc(NC5CCCC5)ncc34)c2)C1 (centres undefined)	%	3.82
COc1ccc2ncc(F)c(CCN3CC[C@@H](CNCc4cc(C)c5c(c4)OCCO5)C3)c2n1	%	7.09
O=C(Nc1cccc(F)c1)N(Cc1ccc(-c2ccc(CN3CCNCC3)cc2)cc1)C1CCN(Cc2ccccc2)CC1	%	-0.04
O=C(c1cc(C(=O)Nc2ccc(F)cc2)c(=O)n(-c2ccc(F)cc2)c1)c1cc(Cl)ccc1O	%	0.23
O=C(O)/C=C/c1cccc(F)c1F	%	1.29
O=C(Cn1cc(C(F)(F)F)cc(Cl)c1=O)N1CCN(S(=O)(=O)c2ccc(Cl)cc2)CC1	%	2.2
COC(=O)c1ccc(C2OC3(C(=O)c4ccccc4C3=O)C(OC)=C2Cl)cc1C(C)=O (centres undefined)	%	-2.44
Cc1cc(-c2ccc3c(c2)CCN(CCCOc2ccc4c(c2)CCN4C(=O)/C=C/c2ccccc2Cl)CC3)no1	%	5.8
CO/C(=C\C=C\c1cc2cc(Cl)c(Cl)cc2[nH]1)C(=O)NCCCN(C)CCN(C)c1ccccc1	%	4.46
CO/C(=C\C=C\c1cc2cc(Cl)c(Cl)cc2[nH]1)C(=O)NCCCN1CCN(c2ccc(OC)cc2)CC1	%	2.11
COc1cc(CNCCCNc2cc(=O)c3ccccc3[nH]2)c2c(c1)C(C)CN2C(=O)OC(C)(C)C (centres undefined)	%	9.27
